- experimental_target: human CD39 (Homo sapiens)
- Sequence (P49961 1-510): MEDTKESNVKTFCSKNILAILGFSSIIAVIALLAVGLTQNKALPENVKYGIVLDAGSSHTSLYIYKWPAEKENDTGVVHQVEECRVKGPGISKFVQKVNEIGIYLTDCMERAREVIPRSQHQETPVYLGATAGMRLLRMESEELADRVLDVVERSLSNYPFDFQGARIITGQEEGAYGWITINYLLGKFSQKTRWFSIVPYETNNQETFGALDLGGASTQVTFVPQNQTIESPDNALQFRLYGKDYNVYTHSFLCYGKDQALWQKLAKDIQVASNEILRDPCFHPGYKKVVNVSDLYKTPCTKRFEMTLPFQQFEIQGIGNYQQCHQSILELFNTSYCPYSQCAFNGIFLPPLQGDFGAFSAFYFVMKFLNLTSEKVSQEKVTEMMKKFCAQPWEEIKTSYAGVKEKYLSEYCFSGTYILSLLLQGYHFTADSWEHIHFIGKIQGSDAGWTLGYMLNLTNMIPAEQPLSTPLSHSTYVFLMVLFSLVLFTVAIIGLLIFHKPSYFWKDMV
- procedure_summary: Fluorescence capillary electrophoresis assay for CD39
- Format: biochemical
- Design: Human umbilical cord membrane preparations (250 ng) natively expressing high amounts of CD39; from tissue; host or cells: human umbilical cord membranes
- condition_context: read-out: % inhibition at 10 µM; screening at 10 µM; fluorescent substrate PSB-017621A 0.5 µM
- Method: They were minced and homogenized with a polytron in 95 mM NaCl, 0.1 mM phenylmethylsulfonyl fluoride (PMSF), and 45 mM Tris solution, pH 7.6. […] The pellets were resuspended in 5 mM Tris buffer solution, pH 8.0 and 10% glycerol. […] For inhibition screening, three independent experiments were performed. […] The solution was then diluted 1:20 with reaction buffer to perform separation of nucleotides by capillary electrophoresis (CE) followed by laser-induced fluorescence (LIF) detection. […]
quantity_name: inhibition at 10 µM (%)

Example entries begin here.
molecule	inhibition at 10 µM [%]
Nc1ncnc2c1ncn2[C@@H]1O[C@H](COP(=O)(O)OP(=O)(O)CP(=O)(O)O)[C@@H](O)[C@H]1O [Compound 43, β,γ-Methylene-ATP, reference compound]	23
CCN(CC)c1ncnc2c1nc(NC)n2[C@@H]1O[C@H](COP(=O)(O)OP(=O)(O)C(Br)(Br)P(=O)(O)O)[C@@H](O)[C@H]1O [Compound 35]	59
CCCCNc1nc2c(N(C)C)ncnc2n1[C@@H]1O[C@H](COP(=O)(O)OP(=O)(O)C(Br)(Br)P(=O)(O)O)[C@@H](O)[C@H]1O [Compound 34]	54

(a) O=P(O)(OC[C@H]1O[C@@H](n2cnc3c(NCc4ccccc4)ncnc32)[C@H](O)[C@@H]1O)OP(=O)(O)C(Br)(Br)P(=O)(O)O [Compound 29]
(b) CCCCSc1nc2c(NC)ncnc2n1[C@@H]1O[C@H](COP(=O)(O)OP(=O)(O)C(Br)(Br)P(=O)(O)O)[C@@H](O)[C@H]1O [Compound 36]
Task item: Which entry has a larger number for inhibition at 10 µM, a or b ? Pick one and reply with its label.
Reply: b
(b: 39%, a: 4%)

* * *

- experimental_target: human CD73 (Homo sapiens, UniProt P21589)
- Sequence (P21589 27-549 limits assumed): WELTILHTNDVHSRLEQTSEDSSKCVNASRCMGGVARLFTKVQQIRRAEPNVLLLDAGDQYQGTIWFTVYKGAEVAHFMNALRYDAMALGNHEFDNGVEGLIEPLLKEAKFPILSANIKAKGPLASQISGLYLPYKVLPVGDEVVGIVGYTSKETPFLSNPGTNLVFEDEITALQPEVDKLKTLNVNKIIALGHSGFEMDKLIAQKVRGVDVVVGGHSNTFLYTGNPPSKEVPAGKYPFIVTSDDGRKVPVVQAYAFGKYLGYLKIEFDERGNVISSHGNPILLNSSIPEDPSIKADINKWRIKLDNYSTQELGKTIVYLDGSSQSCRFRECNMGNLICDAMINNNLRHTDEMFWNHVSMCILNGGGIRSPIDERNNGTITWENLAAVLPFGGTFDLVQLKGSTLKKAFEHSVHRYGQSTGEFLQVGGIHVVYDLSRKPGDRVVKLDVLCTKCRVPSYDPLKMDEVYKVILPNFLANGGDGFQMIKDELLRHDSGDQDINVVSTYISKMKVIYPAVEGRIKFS
Below: a set of entries, each annotated with reported Ki.
Express it in nM; write the number only.

Noted for CCCCSc1nc2c(N)ncnc2n1[C@@H]1O[C@H](COP(=O)(O)OP(=O)(O)C(Br)(Br)P(=O)(O)O)[C@@H](O)[C@H]1O : its Ki reads 831

The measured Ki associated with CCN(CC)c1ncnc2c1ncn2[C@@H]1O[C@H](COP(=O)(O)OP(=O)(O)C(Br)(Br)P(=O)(O)O)[C@@H](O)[C@H]1O [ARL67156, reference compound] reads 451
